Here the recorded pKd is given for each entry.
# experimental system: T1, CDK9/Cyclin T1 (Homo sapiens, UniProt P50750)
# T1 construct: His
# T1 sequence (P50750 whole entry): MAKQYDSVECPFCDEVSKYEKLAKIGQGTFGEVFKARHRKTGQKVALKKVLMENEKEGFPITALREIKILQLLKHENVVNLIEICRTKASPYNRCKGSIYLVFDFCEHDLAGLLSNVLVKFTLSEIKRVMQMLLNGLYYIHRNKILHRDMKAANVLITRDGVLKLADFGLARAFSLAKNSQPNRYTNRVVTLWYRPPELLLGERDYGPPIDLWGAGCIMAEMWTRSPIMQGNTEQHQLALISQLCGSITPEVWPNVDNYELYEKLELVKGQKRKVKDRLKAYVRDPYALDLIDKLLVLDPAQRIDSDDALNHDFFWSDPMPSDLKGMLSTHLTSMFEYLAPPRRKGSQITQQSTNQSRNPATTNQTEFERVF
# T1 sequence (O60563 whole entry partner): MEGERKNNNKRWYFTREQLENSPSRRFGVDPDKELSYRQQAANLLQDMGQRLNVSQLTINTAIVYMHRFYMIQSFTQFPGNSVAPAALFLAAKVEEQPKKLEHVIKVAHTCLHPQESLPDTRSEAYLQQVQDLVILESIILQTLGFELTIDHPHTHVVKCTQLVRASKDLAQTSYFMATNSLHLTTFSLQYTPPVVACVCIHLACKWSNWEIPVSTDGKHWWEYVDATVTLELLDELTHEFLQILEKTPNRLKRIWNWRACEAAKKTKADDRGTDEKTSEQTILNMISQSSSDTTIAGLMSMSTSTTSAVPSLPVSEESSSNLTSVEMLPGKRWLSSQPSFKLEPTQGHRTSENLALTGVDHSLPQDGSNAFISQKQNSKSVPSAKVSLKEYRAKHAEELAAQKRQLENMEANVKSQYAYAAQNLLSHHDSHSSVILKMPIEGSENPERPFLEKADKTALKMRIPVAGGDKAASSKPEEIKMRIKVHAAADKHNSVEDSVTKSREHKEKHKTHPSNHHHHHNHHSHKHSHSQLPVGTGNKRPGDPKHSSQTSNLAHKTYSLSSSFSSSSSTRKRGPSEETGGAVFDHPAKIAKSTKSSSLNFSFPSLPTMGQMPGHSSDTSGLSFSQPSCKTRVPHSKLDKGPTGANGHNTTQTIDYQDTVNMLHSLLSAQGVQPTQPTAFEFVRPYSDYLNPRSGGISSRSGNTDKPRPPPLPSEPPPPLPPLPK
# measurement notes: LanthaScreen Eu Kinase Binding Assay, CDK9/Cyclin T1
# run conditions: tracer 236, read-out: CDK9/Cyclin T1 (activity range), Kd
pKd: −log10 of the molar value.

These recorded examples may help you get a feel for the data.
- compound: "C[C@@H]1CCCN1c1ncnc(Nc2cccc(CS(N)(=O)=O)c2)n1 [Compound B15]"
  pKd: "6.00 to 7.00"
- compound: "NS(=O)(=O)Cc1cccc(Nc2ncnc(N3CCC[C@H]3C(F)(F)F)n2)c1 [Compound B16]"
  pKd: "6.00 to 7.00"

(Q) I would be grateful if you could share the reported pKd for CN(C)CCC1CCCCN1c1ncnc(Nc2cccc(CS(N)(=O)=O)c2)n1 (racemic) [Compound B8] .
(A) 5.00 to 6.00

(Q) I would be grateful if you could share the reported pKd for NS(=O)(=O)Cc1cccc(Nc2ncnc(N3CCCC3)n2)c1 [Compound B14] .
(A) 6.00 to 7.00

(Q) I would be grateful if you could share the reported pKd for NS(=O)(=O)Cc1cccc(Nc2ncnc(N3CCc4ccccc43)n2)c1 [Compound B52] .
(A) > 7.00

* * *

Here the recorded pKd is given for each entry.
# experimental system: CDK2/CyclinA (Homo sapiens, UniProt P24941)
# Construct: GST
# measurement notes: LanthaScreen Eu Kinase Binding Assay, CDK2
# run conditions: tracer 236, read-out: CDK2 (activity range), Kd
pKd: −log10 of the molar value.

These recorded examples may help you get a feel for the data.
- molecule: "NS(=O)(=O)Cc1cccc(Nc2ncnc(N3CCCn4nccc43)n2)c1 [Compound B47]"
  pKd: "> 7.00"
- molecule: "NS(=O)(=O)Cc1cccc(Nc2ncnc(N3CCOCC3)n2)c1 [Compound B10]"
  pKd: "5.00 to 6.00"

// next item, pKd requested
(Q) I would be grateful if you could share the reported pKd for NS(=O)(=O)Cc1cccc(Nc2ncnc(N3CCc4ccccc43)n2)c1 [Compound B52] .
(A) 6.00 to 7.00
